- PROTOCOL: folding enthalpy; higher = less favourable; fluorescence melt of hairpins on a sequencing array, two-state fit
- CONDITION: sodium 0.088 M
Note that class boundaries on folding enthalpy are A (below -30 kcal/mol), B (-30 kcal/mol to below -20 kcal/mol), C (-20 kcal/mol or more)

[[record]]
sequence_input = "GGTAGAGGAAACCCTACC (((((.(....).)))))"
class = "A"

[[record]]
sequence_input = "GATCACTTGGGTGATC ((((((....))))))"
class = "A"

[[record]]
sequence_input = "GGTCTAGGAAACTGGACC ((((.((....)).))))"
class = "A"

[[record]]
sequence_input = "GGCTGGGGAAACCCAACC ((.((((....)))).))"
class = "B"

[[record]]
sequence_input = "GAAGGCGAAAGCCAATTC ((((((....)))..)))"
class = "C"

[[record]]
sequence_input = "GATCGAGAGATCGATC ((((((....))))))"
class = "B"

[[record]]
sequence_input = "CGTGCCCGGAAACGGACG (((..(((....))))))"
class = "C"

[[record]]
sequence_input = "GTTGGGCCGAAAGGCAAC (((..(((....))))))"
class = "C"

[[record]]
sequence_input = "GTTACGCGAAAGCGAAAC (((.(((....))).)))"
class = "B"


----------
- PROTOCOL: melting temperature; fluorescence melt of hairpins on a sequencing array, two-state fit, raised by 9.35 °C to match UV melts
- CONDITION: sodium 0.088 M
Measured Tm, listed per entry for reference.
OUTCOME MEASURE: Tm (°C)

[[record]]
sequence_input = "GATCGGGATACCGATC ((((((....))))))"
unit_string = "°C"
measurement = 65.7

[[record]]
sequence_input = "GCGGTGCGAAAGCAGTGC ((..(((....)))..))"
unit_string = "°C"
measurement = 63.6

[[record]]
sequence_input = "GATCAAGAAGTTGATC ((((((....))))))"
unit_string = "°C"
measurement = 43.9

[[record]]
sequence_input = "GTAATACCGAAAGGTTAC (((..(((....))))))"
unit_string = "°C"
measurement = 31.5

[[record]]
sequence_input = "GGAAGGACGAAAGTCTCC (((..(((....))))))"
unit_string = "°C"
measurement = 33.1

[[record]]
sequence_input = "GGCGCTGGAAACGGTGCC (((.(.(....).).)))"
unit_string = "°C"
measurement = 52.7

[[record]]
sequence_input = "GTTGTCGGAAACGGCAAC ((((.((....)).))))"
unit_string = "°C"
measurement = 56.2

[[record]]
sequence_input = "GATCCAGAAGTGGATC ((((((....))))))"
unit_string = "°C"
measurement = 52.1

[[record]]
sequence_input = "GTAGTCTCGAAAGAGTAC (((..(((....))))))"
unit_string = "°C"
measurement = 31.9

[[record]]
sequence_input = "GGCAATGGAAACATCGCC (((.(((....))).)))"
unit_string = "°C"
measurement = 45.5

[[record]]
sequence_input = "GGTAGTCGAAAGACAACC (((.(((....))).)))"
unit_string = "°C"
measurement = 51.3

[[record]]
sequence_input = "GCACCGCGAAAGCCATGC (((..((....))..)))"
unit_string = "°C"
measurement = 28.6

[[record]]
sequence_input = "GGATATCGAAAGATTTCC (((.(((....))).)))"
unit_string = "°C"
measurement = 41.5

[[record]]
sequence_input = "GACCCGCGAAAGCGCGTC (((.(((....))).)))"
unit_string = "°C"
measurement = 47.8

[[record]]
sequence_input = "GAATTCGAAAGAATTC ((((((....))))))"
unit_string = "°C"
measurement = 54.4

[[record]]
sequence_input = "GCGACCGGAAACGGTCAC (.(((((....))))).)"
unit_string = "°C"
measurement = 51.4

[[record]]
sequence_input = "GCACACCCGAAAGGGTGC (((..(((....))))))"
unit_string = "°C"
measurement = 38.6

[[record]]
sequence_input = "GCGACATTCGC ((((...))))"
unit_string = "°C"
measurement = 52.3

[[record]]
sequence_input = "GGAAGTGCGAAAGCATCC (((..(((....))))))"
unit_string = "°C"
measurement = 31.3

[[record]]
sequence_input = "GCCTTTCGAAAGAAGGGC (((.(((....))).)))"
unit_string = "°C"
measurement = 53.6

